Where these numbers come from: patent US12679822B2

Please provide measured GI50 for the entries that follow.
biological target: BaF3 cell lines stably transfected with kinase EGFR Del/T790M (Homo sapiens, UniProt P00533, T790M, cells depend on it, form not given); assay: Growth inhibition of BaF3 cell line stably transfected with kinase EGFR Del/T790M (MTS); assay type: cell-based; details: 48 h, read-out: growth inhibitory activity IC50, Del/T790M
Sequence (P00533 with tags, fused parts or gaps DEL746-750/T790M, form open): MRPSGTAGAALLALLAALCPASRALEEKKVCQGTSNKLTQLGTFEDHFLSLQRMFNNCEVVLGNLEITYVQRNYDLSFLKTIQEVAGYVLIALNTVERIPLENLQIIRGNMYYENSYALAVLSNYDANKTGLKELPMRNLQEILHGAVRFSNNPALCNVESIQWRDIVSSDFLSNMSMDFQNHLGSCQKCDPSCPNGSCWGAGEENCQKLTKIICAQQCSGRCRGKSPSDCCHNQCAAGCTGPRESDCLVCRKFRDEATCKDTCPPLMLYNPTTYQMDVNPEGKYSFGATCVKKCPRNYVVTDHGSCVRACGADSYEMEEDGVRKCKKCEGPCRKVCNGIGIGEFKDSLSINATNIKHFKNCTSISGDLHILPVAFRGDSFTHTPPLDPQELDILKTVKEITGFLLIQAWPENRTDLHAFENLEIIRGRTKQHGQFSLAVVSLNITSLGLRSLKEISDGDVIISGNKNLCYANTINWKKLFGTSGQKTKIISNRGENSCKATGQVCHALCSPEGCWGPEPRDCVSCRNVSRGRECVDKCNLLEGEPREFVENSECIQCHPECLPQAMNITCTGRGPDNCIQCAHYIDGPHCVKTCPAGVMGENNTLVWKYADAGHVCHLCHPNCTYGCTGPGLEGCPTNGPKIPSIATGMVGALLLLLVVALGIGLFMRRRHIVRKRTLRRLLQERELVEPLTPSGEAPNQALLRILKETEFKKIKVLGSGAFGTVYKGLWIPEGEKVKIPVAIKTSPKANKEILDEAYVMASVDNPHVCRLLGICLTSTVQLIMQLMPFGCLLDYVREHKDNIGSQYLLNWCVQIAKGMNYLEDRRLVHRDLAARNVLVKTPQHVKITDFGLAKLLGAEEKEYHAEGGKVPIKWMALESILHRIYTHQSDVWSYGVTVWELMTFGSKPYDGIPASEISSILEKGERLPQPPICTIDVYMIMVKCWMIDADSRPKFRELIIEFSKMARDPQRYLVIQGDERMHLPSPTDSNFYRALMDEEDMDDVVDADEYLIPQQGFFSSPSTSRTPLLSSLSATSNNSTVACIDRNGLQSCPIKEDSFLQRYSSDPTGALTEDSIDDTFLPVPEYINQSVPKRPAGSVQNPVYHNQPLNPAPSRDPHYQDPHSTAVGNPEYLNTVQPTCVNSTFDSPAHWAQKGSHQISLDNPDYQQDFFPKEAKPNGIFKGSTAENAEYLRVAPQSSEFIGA

Memo: C=Cc1cnc(Nc2cc(CC3CC3)c(N3CCC(N4CCN(C)CC4)CC3)cc2OC)nc1Nc1ccc2nccnc2c1N(C)S(C)(=O)=O , reported GI50: ≤ 50 nM

GI50 measured on C=Cc1cnc(Nc2ccc(N3CCC(N4CCN(C)CC4)CC3)c(CC)c2)nc1Nc1ccc2nccnc2c1S(C)(=O)=O = 50 to 500 nM

Sample C=Cc1cnc(Nc2ccc(N3CCC(N4CCN(C)CC4)CC3)c(F)c2F)nc1Nc1ccc2nccnc2c1NS(C)(=O)=O ; GI50 observed: 50 to 500 nM

Reported GI50 for C=Cc1cnc(Nc2cc(CC)c(N3CCC(N4CCN(C)CC4)CC3)cc2OC)nc1Nc1ccc2nccnc2c1N(C)S(=O)(=O)CC was ≤ 50 nM

Note to self: GI50 recorded for C=Cc1cnc(Nc2cc(CC)c(N3CCC(N4CCN(C)CC4)CC3)cc2OC)nc1Nc1ccc2nccnc2c1S(=O)(=O)NC(C)C was 50 to 500 nM

Please fill in: GI50 reported for C=Cc1cnc(Nc2cc(CC)c(N3CCC(N4CCN(C)CC4)CC3)nc2OC)nc1Nc1ccc2nccnc2c1S(=O)(=O)NC = 50 to 500 nM

GI50 recorded for this compound, C=C(C)c1cnc(Nc2cc(C(C)C)c(N3CCC(N4CCN(C)CC4)CC3)cc2OC)nc1Nc1ccc2nccnc2c1N(C)S(C)(=O)=O , is 50 to 500 nM

----------
target: BaF3 cell lines stably transfected with kinase EGFR Del (Homo sapiens, UniProt P00533, cells depend on it, form not given); experiment: Growth inhibition of BaF3 cell line stably transfected with kinase EGFR Del (MTS); type: cell-based; settings: 48 h, read-out: growth inhibitory activity IC50, Del
Sequence (P00533 with tags, fused parts or gaps DEL746-750): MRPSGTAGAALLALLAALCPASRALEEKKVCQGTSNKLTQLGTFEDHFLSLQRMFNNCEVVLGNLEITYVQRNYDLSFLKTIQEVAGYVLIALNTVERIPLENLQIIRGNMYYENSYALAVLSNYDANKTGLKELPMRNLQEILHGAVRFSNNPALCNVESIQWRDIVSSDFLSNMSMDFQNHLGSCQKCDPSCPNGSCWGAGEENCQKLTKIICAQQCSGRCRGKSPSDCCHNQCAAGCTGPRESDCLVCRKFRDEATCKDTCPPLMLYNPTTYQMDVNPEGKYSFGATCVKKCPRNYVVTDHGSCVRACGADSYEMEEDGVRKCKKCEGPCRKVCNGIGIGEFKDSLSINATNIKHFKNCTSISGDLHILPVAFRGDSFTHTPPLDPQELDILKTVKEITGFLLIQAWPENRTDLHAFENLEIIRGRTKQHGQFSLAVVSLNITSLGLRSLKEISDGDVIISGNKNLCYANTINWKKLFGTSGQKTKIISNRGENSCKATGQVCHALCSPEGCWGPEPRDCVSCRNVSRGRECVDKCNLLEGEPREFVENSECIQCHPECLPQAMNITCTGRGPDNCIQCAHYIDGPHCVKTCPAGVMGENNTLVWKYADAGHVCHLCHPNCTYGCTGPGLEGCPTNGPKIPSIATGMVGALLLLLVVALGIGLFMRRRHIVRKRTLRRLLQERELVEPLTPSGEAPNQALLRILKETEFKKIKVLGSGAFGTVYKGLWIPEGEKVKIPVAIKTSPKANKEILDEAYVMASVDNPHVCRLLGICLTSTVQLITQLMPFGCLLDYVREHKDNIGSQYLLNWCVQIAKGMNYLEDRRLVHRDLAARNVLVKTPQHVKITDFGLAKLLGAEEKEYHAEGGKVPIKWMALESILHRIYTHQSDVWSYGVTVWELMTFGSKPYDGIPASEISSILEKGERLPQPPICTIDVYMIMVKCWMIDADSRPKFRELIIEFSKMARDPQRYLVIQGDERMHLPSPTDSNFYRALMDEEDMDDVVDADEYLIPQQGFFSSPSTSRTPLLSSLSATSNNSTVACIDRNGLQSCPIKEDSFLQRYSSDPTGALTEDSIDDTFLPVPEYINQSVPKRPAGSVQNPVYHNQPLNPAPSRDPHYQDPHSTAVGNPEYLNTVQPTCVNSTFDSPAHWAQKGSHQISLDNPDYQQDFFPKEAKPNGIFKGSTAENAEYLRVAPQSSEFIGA
measured parameter: GI50

Reported GI50 ( C=Cc1cnc(Nc2cc(CC)c(N3CCC(N4CCN(C)CC4)CC3)nc2OC)nc1Nc1ccc2nccnc2c1NS(C)(=O)=O [II-33] ) = ≤ 50 nM

Item: C=Cc1cnc(Nc2cc(CC)c(N3CCC(N4CCN(C)CC4)CC3)cc2OC)nc1Nc1ccc2nccnc2c1N(C)S(=O)(=O)CC [II-9] | GI50: 50 to 500 nM

Lab book: GI50 of C=Cc1cnc(Nc2cc[nH]n2)nc1Nc1ccc2nccnc2c1N(C)S(C)(=O)=O [II-59] noted as 50 to 500 nM

Lookup result for C=Cc1cnc(Nc2cc(CC)c(N3CCC(N4CCNCC4)CC3)cc2OC)nc1Nc1ccc2nccnc2c1N(C)S(C)(=O)=O [II-52] ; measured GI50: 50 to 500 nM

Value of GI50 reported for the molecule C=Cc1cnc(Nc2cc3c(cc2F)CCN(C)C3)nc1Nc1ccc2nccnc2c1N(C)S(C)(=O)=O [II-74] is 50 to 500 nM

Reported GI50 for C=Cc1cnc(Nc2cc(CC)c(NCCN(C)C)cc2OC)nc1Nc1ccc2nccnc2c1N(C)S(C)(=O)=O [II-50] was 500 to 2500 nM

Lab note: measured GI50 of C=Cc1cnc(Nc2cc(C)c(N3CCC(N4CCN(C)CC4)CC3)cc2OC)nc1Nc1ccc2nccnc2c1NS(C)(=O)=O [II-31] was ≤ 50 nM

GI50 reading for C=Cc1cnc(Nc2cc(CC)c(N3CCN(C)CC3)cc2OC)nc1Nc1ccc2nccnc2c1P(C)(C)=O [Compound I-4] : ≤ 50 nM

Lab note: measured GI50 of C=Cc1cnc(Nc2cc(C(C)C)c(N3CCC(N4CCN(C)CC4)CC3)cc2OC)nc1Nc1ccc2nccnc2c1N(C)S(C)(=O)=O [II-17] was 50 to 500 nM

The reported GI50 of the molecule CCc1cc(Nc2ncc(/C=C/c3ccccc3)c(Nc3ccc4nccnc4c3P(C)(C)=O)n2)c(OC)cc1N1CCC(N2CCN(C)CC2)CC1 [Compound I-14] was 50 to 500 nM

Item: C=Cc1cnc(Nc2cc(CC)c(N3CCC4(CC3)CC(N(C)C)C4)cc2OC)nc1Nc1ccc2nccnc2c1N(C)S(C)(=O)=O [II-55] | GI50: 50 to 500 nM

Looking up C=Cc1cnc(Nc2cc(CC3CC3)c(N3CCC(N4CCN(C)CC4)CC3)cc2OC)nc1Nc1ccc2nccnc2c1NS(C)(=O)=O [II-37] , I found its GI50 recorded as ≤ 50 nM

Looking up C=Cc1cnc(Nc2cc(CC)c(N3CCC(N4CCN(C)CC4)CC3)cc2OC)nc1Nc1ccc2nccnc2c1NS(C)(=O)=O [II-32] , I see its GI50 listed as ≤ 50 nM

// recorded GI50 for C=Cc1cnc(Nc2cc(C3CC3)c(N3CCC(N4CCN(C)CC4)CC3)cc2OC)nc1Nc1ccc2nccnc2c1S(=O)(=O)NC [IV-7] : 50 to 500 nM

----------
molecular target: BaF3 cell lines stably transfected with kinase EGFR L858R/T790M/C797S (Homo sapiens, UniProt P00533, T790M/C797S/L858R, cells depend on it); experiment: Growth inhibition of BaF3 cell line stably transfected with kinase EGFR L858R/T790M/C797S (MTS); assay type: cell-based; conditions: 48 h, read-out: growth inhibitory activity IC50, L858R/T790M/C797S
Sequence (P00533 whole entry T790M/C797S/L858R): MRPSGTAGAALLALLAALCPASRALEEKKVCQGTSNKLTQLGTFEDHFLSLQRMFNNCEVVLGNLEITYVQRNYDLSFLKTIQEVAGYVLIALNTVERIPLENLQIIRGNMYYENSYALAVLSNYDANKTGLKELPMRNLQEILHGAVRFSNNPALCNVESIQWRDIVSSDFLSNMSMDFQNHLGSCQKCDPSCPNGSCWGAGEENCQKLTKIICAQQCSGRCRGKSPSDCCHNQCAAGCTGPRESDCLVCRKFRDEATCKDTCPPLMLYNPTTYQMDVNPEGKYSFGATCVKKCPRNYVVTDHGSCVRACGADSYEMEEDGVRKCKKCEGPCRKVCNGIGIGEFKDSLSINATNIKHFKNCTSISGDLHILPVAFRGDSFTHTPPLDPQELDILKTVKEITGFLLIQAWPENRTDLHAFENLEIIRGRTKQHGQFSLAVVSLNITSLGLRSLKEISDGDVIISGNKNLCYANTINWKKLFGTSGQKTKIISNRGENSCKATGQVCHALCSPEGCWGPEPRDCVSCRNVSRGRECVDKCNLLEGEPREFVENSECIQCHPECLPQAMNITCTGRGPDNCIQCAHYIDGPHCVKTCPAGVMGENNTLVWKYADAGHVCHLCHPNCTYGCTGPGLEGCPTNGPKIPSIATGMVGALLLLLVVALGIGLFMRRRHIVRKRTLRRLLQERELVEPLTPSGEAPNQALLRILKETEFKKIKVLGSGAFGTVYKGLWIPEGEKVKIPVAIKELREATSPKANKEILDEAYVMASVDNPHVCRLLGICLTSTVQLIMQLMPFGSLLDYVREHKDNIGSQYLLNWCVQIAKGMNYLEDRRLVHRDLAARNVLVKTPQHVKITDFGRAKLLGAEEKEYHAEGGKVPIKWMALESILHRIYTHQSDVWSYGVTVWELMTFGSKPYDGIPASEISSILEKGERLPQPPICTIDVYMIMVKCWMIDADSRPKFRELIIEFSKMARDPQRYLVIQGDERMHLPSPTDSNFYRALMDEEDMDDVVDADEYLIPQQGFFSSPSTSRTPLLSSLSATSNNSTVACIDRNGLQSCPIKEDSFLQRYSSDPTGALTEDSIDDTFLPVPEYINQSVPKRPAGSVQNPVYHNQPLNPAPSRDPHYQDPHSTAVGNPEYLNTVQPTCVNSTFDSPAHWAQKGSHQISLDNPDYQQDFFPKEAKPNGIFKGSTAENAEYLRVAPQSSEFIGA
Please respond with reported GI50 for every item in the list.

Sample C=Cc1cnc(Nc2ccc(N3CCC(N4CCN(C)CC4)CC3)c(CC)c2)nc1Nc1ccc2nccnc2c1N(C)S(C)(=O)=O [II-20] ; GI50 observed: ≤ 50 nM

Record C=Cc1cnc(Nc2cn(CC)nc2C)nc1Nc1ccc2nccnc2c1N(C)S(C)(=O)=O [II-68] . Reported GI50: 50 to 500 nM

For reference, reported GI50 for C=Cc1cnc(Nc2cc(C3CC3)c(N3CCC(N4CCN(C)CC4)CC3)cc2OC)nc1Nc1ccc2nccnc2c1N(C)S(C)(=O)=O [II-18] stands at 50 to 500 nM

Memo: CCc1cc(Nc2ncc(C=C(C)C)c(Nc3ccc4nccnc4c3N(C)S(C)(=O)=O)n2)c(OC)cc1N1CCC(N2CCN(C)CC2)CC1 [II-26] , reported GI50: 500 to 2500 nM

The compound listed as C=Cc1cnc(Nc2cc(CC)c(N3CCC(N4CCN(C)CC4)CC3)cc2OC)nc1Nc1ccc2nccnc2c1N(CC)S(C)(=O)=O [II-12] shows GI50 equal to ≤ 50 nM

# GI50 of C=Cc1cnc(Nc2cnn(CC)c2)nc1Nc1ccc2nccnc2c1N(C)S(C)(=O)=O [II-66] = 500 to 2500 nM

Reported GI50 of C=Cc1cnc(Nc2ccc3c(c2)CN(C)CC3)nc1Nc1ccc2nccnc2c1N(C)S(C)(=O)=O [II-77] : ≤ 50 nM

Lab note: measured GI50 of C=Cc1cnc(Nc2cc(C)c(N3CCC(N4CCN(C)CC4)CC3)cc2OC)nc1Nc1ccc2nccnc2c1S(=O)(=O)NC [IV-2] was 50 to 500 nM

For record C=Cc1cnc(Nc2ccc(N3CCC(N4CCN(C)CC4)CC3)cc2OC)nc1Nc1ccc2nccnc2c1S(=O)(=O)C(C)C [III-18] the listed GI50 is 500 to 2500 nM

Measured GI50 of C=Cc1cnc(Nc2cc(C)c(N3CCC(N4CCN(C)CC4)CC3)cc2OC)nc1Nc1ccc2nccnc2c1S(=O)(=O)NC(C)C [IV-17] : 500 to 2500 nM

Documented GI50 of C=Cc1cnc(Nc2cc(CC)c(N3CCC(N(C)C)CC3)cc2OC)nc1Nc1ccc2nccnc2c1NS(C)(=O)=O [II-39] : ≤ 50 nM

Looking up C=Cc1cnc(Nc2cc(CC)c(N3CCC(N4CCN(C)CC4)CC3)cc2OC)nc1Nc1ccc2nccnc2c1N(C1CC1)S(C)(=O)=O [II-14] , I see its GI50 listed as ≤ 50 nM

Consider C=Cc1cnc(Nc2cc(CC)c(N3CCC(N4CCN(C)CC4)CC3)cc2OC)nc1Nc1ccc2nccnc2c1N(C)S(=O)(=O)CC [II-9] . Its measured GI50 is ≤ 50 nM

Value of GI50 reported for the compound C=Cc1cnc(Nc2cc(CC)c(N3CCC(N4CCN(C)CC4)CC3)cc2OC)nc1Nc1ccc2nccnc2c1N(C)S(C)(=O)=O [II-53] is ≤ 50 nM

Noted for C=Cc1cnc(Nc2cc(CC)c(N3CCC(N4CCN(C)CC4)CC3)nc2OC)nc1Nc1ccc2nccnc2c1NS(C)(=O)=O [II-33] : its GI50 reads 50 to 500 nM

Sample C=Cc1cnc(Nc2cc(CC)c(N3CCC(N4CCN(C)CC4)CC3)cc2OC)nc1Nc1ccc2nccnc2c1S(=O)(=O)NC [IV-3] ; GI50 observed: 50 to 500 nM

Noted for C=Cc1cnc(Nc2cc(CC)c(N3CCN(C)CC3)cc2OC)nc1Nc1ccc2nccnc2c1S(=O)(=O)NC [IV-15] : its GI50 reads 50 to 500 nM

Given item C=Cc1cnc(Nc2cc(CC)c(N3CCN(C)CC3)cc2OC)nc1Nc1ccc2nccnc2c1NS(C)(=O)=O [II-41] , the value recorded as its GI50 is ≤ 50 nM

Record C=Cc1cnc(Nc2cc(C3CC3)c(N3CCC(N4CCN(C)CC4)CC3)cc2OC)nc1Nc1ccc2nccnc2c1S(C)(=O)=O [III-12] , field GI50: 50 to 500 nM

Measured GI50, CCc1cc(Nc2ncc(/C=C/c3ccccc3)c(Nc3ccc4nccnc4c3P(C)(C)=O)n2)c(OC)cc1N1CCC(N2CCN(C)CC2)CC1 [Compound I-14] : 50 to 500 nM

Entry C=C(C)c1cnc(Nc2cc(C(C)C)c(N3CCC(N4CCN(C)CC4)CC3)cc2OC)nc1Nc1ccc2nccnc2c1N(C)S(C)(=O)=O [II-22] — recorded GI50 = 500 to 2500 nM

// GI50 value for C=Cc1cnc(Nc2cc(CC3CC3)c(N3CCC(N4CCN(C)CC4)CC3)cc2OC)nc1Nc1ccc2nccnc2c1S(C)(=O)=O [III-13] : 500 to 2500 nM

The compound listed as CCc1cc(Nc2ncc(/C=C/c3ccccc3)c(Nc3ccc4nccnc4c3N(C)S(C)(=O)=O)n2)c(OC)cc1N1CCC(N2CCN(C)CC2)CC1 [II-29] shows GI50 equal to 500 to 2500 nM

response.value for C=Cc1cnc(Nc2ccc(N3CCC(N4CCN(C)CC4)CC3)cc2OC)nc1Nc1ccc2nccnc2c1S(=O)(=O)NC [IV-1] (field: GI50) = 500 to 2500 nM

// GI50 value for C=Cc1cnc(Nc2cc(F)c(N3CCC(N4CCN(C)CC4)CC3)c(F)c2)nc1Nc1ccc2nccnc2c1S(=O)(=O)NC [IV-11] : 50 to 500 nM

For C=Cc1cnc(Nc2ccn(CC)n2)nc1Nc1ccc2nccnc2c1N(C)S(C)(=O)=O [II-60] the compound record lists GI50 as 50 to 500 nM

Short answer for C=Cc1cnc(Nc2cc(CC3CC3)c(N3CCC(N4CCN(C)CC4)CC3)cc2OC)nc1Nc1ccc2nccnc2c1NS(C)(=O)=O [II-37] : GI50 was ≤ 50 nM

Per the records, this compound ( C=Cc1cnc(Nc2cc(C3CC3)c(N3CCC(N4CCN(C)CC4)CC3)cc2OC)nc1Nc1ccc2nccnc2c1NS(C)(=O)=O [II-36] ) has GI50 equal to ≤ 50 nM
